Molecular target: UniProtKB P31749
Sequence (P31749 whole entry): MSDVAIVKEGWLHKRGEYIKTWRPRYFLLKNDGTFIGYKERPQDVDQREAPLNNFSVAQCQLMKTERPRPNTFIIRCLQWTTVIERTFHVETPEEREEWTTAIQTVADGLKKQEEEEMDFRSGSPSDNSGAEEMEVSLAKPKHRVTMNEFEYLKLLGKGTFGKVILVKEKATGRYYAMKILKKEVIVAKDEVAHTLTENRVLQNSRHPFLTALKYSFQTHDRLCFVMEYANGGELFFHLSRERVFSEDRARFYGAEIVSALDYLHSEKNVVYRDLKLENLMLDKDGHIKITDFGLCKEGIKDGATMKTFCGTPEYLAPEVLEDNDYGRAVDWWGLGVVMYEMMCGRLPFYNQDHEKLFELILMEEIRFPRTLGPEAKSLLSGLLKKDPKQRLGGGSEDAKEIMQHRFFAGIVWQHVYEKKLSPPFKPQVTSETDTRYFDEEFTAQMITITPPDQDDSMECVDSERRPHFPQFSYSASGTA
Assay: AKT enzyme assay
Type: biochemical
Conditions: read-out: IC50 AKT
Description: A TTP Mosquito liquid handling instrument is used to place 125n1 of the appropriate concentration of inhibitor in 100% DMSO (for a dose response curve calculation) into each well of a 384-well plate. […] The plate is read on a Caliper LC 3000 in an Off-Chip mobility shift assay format, using the following parameters for a 12-sipper chip: screening pressure −2.3 psi, upstream voltage −500, and downstream voltage −3000. […]
Quick rule for you: IC50 under 8 nM gets yes (1), anything else gets no (0).

>  <compound>
NC(=O)c1c(N)ncnc1N1CCC(c2nc(-c3ccc(F)c(C(F)(F)F)c3)cn2C2CNC2)CC1

>  <assignedLabel>
no (0)

$$$$
>  <compound>
Cc1cc(-c2cn(CCN(C)C(C)C)c(C3CCN(c4ncnc(N)c4C(N)=O)CC3)n2)ccc1F

>  <assignedLabel>
no (0)

$$$$
>  <compound>
Cc1cc(-c2cn(CCN(C)C(C)C)c(C3CCN(c4ncnc(N)c4C#N)CC3)n2)ccc1F

>  <assignedLabel>
yes (1)

$$$$
>  <compound>
CCN(CCn1cc(-c2ccc(F)c(C)c2)nc1C1CCN(c2ncnc(N)c2C#N)CC1)C(C)C

>  <assignedLabel>
yes (1)

$$$$
>  <compound>
N#Cc1c(N)ncnc1N1CCC(c2nc(-c3ccc(F)c(C(F)(F)F)c3)cn2C2CCNC2)CC1 (stereo not drawn)

>  <assignedLabel>
no (0)

$$$$
>  <compound>
COc1ccc(-c2cn(CCN3CCC3)c(C3CCN(c4ncnc(N)c4C(N)=O)CC3)n2)cc1F

>  <assignedLabel>
no (0)

$$$$
>  <compound>
NC(=O)c1c(N)ncnc1N1CCC(c2nc(C3CCCCC3)cn2CCN2CCC2)CC1

>  <assignedLabel>
no (0)

$$$$
>  <compound>
Nc1ncnc(N2CCC(c3nc(-c4ccnc(C(F)(F)F)c4)cn3CCN3CCC3)CC2)c1Br

>  <assignedLabel>
yes (1)

$$$$
>  <compound>
Nc1cc(N2CCC(c3nc(-c4ccc(F)c(C(F)(F)F)c4)cn3CCN3CCC3)CC2)ncn1

>  <assignedLabel>
no (0)

$$$$
>  <compound>
CCN(CC)CCn1cc(-c2ccc(F)c(C)c2)nc1C1CCN(c2ncnc(N)c2C(N)=O)CC1

>  <assignedLabel>
no (0)

$$$$
>  <compound>
Cc1ccc(-c2cn(CCN3CCC3)c(C3CCN(c4ncnc(N)c4C(N)=O)CC3)n2)cc1F

>  <assignedLabel>
no (0)

$$$$
>  <compound>
NC(=O)c1c(N)ncnc1N1CCC(c2nc(-c3ccnc(C4CC4)c3)cn2CCN2CCC2)CC1

>  <assignedLabel>
no (0)

$$$$
>  <compound>
CCc1c(N)ncnc1N1CCC(c2nc(-c3cccc(Cl)c3)cn2CCN2CCCC2)CC1

>  <assignedLabel>
no (0)

$$$$
>  <compound>
CC(C)NCCn1cc(-c2ccc(F)c(C(F)(F)F)c2)nc1C1CCN(c2ncnc(N)c2C#N)CC1

>  <assignedLabel>
yes (1)

$$$$
>  <compound>
Nc1ncnc(N2CCC(c3nc(-c4ccc(F)c(C(F)(F)F)c4)cn3CCN3CCCCC3)CC2)c1Cl

>  <assignedLabel>
no (0)

$$$$
>  <compound>
CNCCn1cc(-c2ccnc(C(F)(F)F)c2)nc1C1CCN(c2ncnc(N)c2Br)CC1

>  <assignedLabel>
yes (1)

$$$$
>  <compound>
Nc1ncnc(N2CCC(c3nc(-c4ccc(F)c(C(F)(F)F)c4)cn3CCN3CCCC3)CC2)c1-c1ccc(F)c(F)c1

>  <assignedLabel>
no (0)

$$$$
>  <compound>
CC(C)(C)NCCn1cc(-c2ccc(F)c(C(F)(F)F)c2)nc1C1CCN(c2ncnc(N)c2C#N)CC1

>  <assignedLabel>
yes (1)

$$$$
>  <compound>
CCc1cc(-c2cn(CCN3CCC3)c(C3CCN(c4ncnc(N)c4C#N)CC3)n2)ccn1

>  <assignedLabel>
no (0)

$$$$
>  <compound>
COc1ccc(-c2c(N)ncnc2N2CCC(c3nc(-c4ccc(F)c(C(F)(F)F)c4)cn3C)CC2)cc1

>  <assignedLabel>
no (0)

$$$$
>  <compound>
NC(=O)c1c(N)ncnc1N1CCC(c2nc(-c3ccc(F)cc3)cn2CCN2CCCC2)CC1

>  <assignedLabel>
no (0)

$$$$
>  <compound>
Cc1cc(-c2cn(CCN3CCC3)c(C3CCN(c4ncnc(N)c4C(N)=O)CC3)n2)ccc1F

>  <assignedLabel>
no (0)

$$$$
>  <compound>
N#Cc1c(N)ncnc1N1CCC(c2nc(-c3ccc(F)c(C(F)(F)F)c3)cn2CCN2CCCCC2)CC1

>  <assignedLabel>
yes (1)

$$$$
>  <compound>
N#Cc1c(N)ncnc1N1CCC(c2nc(-c3ccc(F)c(C(F)(F)F)c3)cn2CC2CCCN2)CC1 (stereo not drawn)

>  <assignedLabel>
yes (1)

$$$$
>  <compound>
Nc1cc(N2CCC(c3nc(-c4ccc(C(F)(F)F)cc4)cn3CCN3CCCC3)CC2)ncn1

>  <assignedLabel>
no (0)

$$$$
>  <compound>
N#Cc1c(N)ncnc1N1CCC(c2nc(-c3ccc(OC(F)F)c(F)c3)cn2CCN2CCC2)CC1

>  <assignedLabel>
yes (1)

$$$$
>  <compound>
N#Cc1c(N)ncnc1N1CCC(c2nc(-c3ccc4[nH]ncc4c3)cn2CCN2CCC2)CC1

>  <assignedLabel>
no (0)

$$$$
>  <compound>
NC(=O)c1c(N)ncnc1N1CCC(c2nc(-c3ccc(F)c(C(F)(F)F)c3)cn2CC2CCCN2)CC1 (stereo not drawn)

>  <assignedLabel>
no (0)

$$$$
>  <compound>
Nc1ncnc(N2CCC(c3nc(-c4ccc(C(F)(F)F)c(F)c4)cn3CCN3CCCC3)CC2)c1C1CCC1 [Compound 254]

>  <assignedLabel>
no (0)

$$$$
